# Tested on: UO-31 renal
# Measurement Description: NCI-60 one-dose screen, 48 h (100 = growth as untreated, 0 = no growth, -100 = all killed)
# Assay Context: 10 µM unless noted
Compounds without any hit were thinned out: in the full panel of roughly 83,000, 20% have a hit. Activity calls are given as the source filed them. Rule for the calls: active = growth percent below 10; inactive = the rest.
Property: growth; scope: individual compounds

Example entries begin here.
NS(=O)(=O)c1ccc(Nc2nc(N/N=C/CCc3ccccc3)nc(Nc3ccccc3)n2)cc1; 84% (inactive)
CCC1=Cc2cc(OC)ccc2OC12C=Cc1cc(OC)ccc1O2 (stereo unspecified); 53% (inactive)
COc1cc(/C=C2\C(=O)Nc3cc(Cl)ccc32)ccc1OCc1ccc(F)cc1; 79.8% (inactive)
Cn1ccnc1C(=O)/C=C/c1ccc(NC(=O)c2ccc(F)cc2)cc1; 42.3% (inactive)
CCCn1cnc2c(c1=N)C(c1ccc(Cl)cc1)c1sc3c(C)cccc3c1O2 (stereo unspecified); 32.2% (inactive)

Could you now consider this next compound?
In: Recorded growth of COc1ccc(-c2nc3cc(Cl)c(Cl)cc3n2CC(=O)N=Nc2c(O)[nH]c3ccc(OC)cc23)cc1 , please.
Out: 69.9% (inactive)
